Recorded values, source patent US20230301883A1.

- run.description: Water solubility in sensory oil (solvency of the oil for water)
- Assay type: physicochemical
- measurement.parameters: yes/no
- Excerpt: A sensory oil can be used in the antibacterial composition to assist in leaving the user with a non-tacky feeling to the skin after application of the composition. The antibacterial composition comprises a sensory oil in an amount of 0.01 to 10% by weight, preferably 0.5 to 5% by weight including all values and ranges subsumed therein. The sensory oil can comprise a soluble sensory oil. […]
property.measured: Water solubility in sensory oil

Consider the following illustrative entries.
* CCCCC(CC)COC(=O)CCCCC(=O)OCC(CC)CCCC (centres unmarked) [Diethylhexyl adipate] | No
* CCCCCCCCCCCCOC(=O)C(C)O (centres unmarked) [Lauryl lactate] | No
* CCCCC(CC)COC(=O)CCCCCCCCC(=O)OCC(CC)CCCC (centres unmarked) [Diethyl hexyl sebacate] | No
* CCCCC(CC)COC(=O)CC(O)C(=O)OCC(CC)CCCC (centres unmarked) [Diethyl hexyl malate] | No

INPUT: Return Water solubility in sensory oil (reported value) for this compound: CC(C)OC(=O)CCCCC(=O)OC(C)C [Disopropyl adipate]
OUTPUT: No

###

- run.description: Solubility of sensory oil in 75/25 EtOH/Water blend
- Format: physicochemical
Task for the reader: assign each of the following molecules its reported Solubility in 75/25 EtOH/Water.

Consider the following illustrative entries.
* CCCCC(CC)COC(=O)CCCCC(=O)OCC(CC)CCCC (centres unmarked) [Diethylhexyl adipate] | <10%
* CCCCC(CC)COC(=O)CCCCCCCCC(=O)OCC(CC)CCCC (centres unmarked) [Diethyl hexyl sebacate] | <10%
* CCCCCCCCCCCCOC(=O)C(C)O (centres unmarked) [Lauryl lactate] | >30%
* CC(C)OC(=O)CCCCC(=O)OC(C)C [Disopropyl adipate] | >30%

INPUT: Return Solubility in 75/25 EtOH/Water (reported value) for this molecule: CCCCC(CC)COC(=O)CC(O)C(=O)OCC(CC)CCCC (centres unmarked) [Diethyl hexyl malate]
OUTPUT: >30%
